- Assay: gradient 5% acetonitrile 3 min, to 50% in 2 min, to 85% in 15 min, held 3 min, 100 µL/min
- Test settings: column: Zorbax Extend-C18 2.1 x 50 mm; eluents: water / acetonitrile, 0.1% formic acid
Measured parameter: RP-LC retention time (s)

Record excerpt, results attached:
> print(dat)
                                   molecule  result.number
1  O=C(Cn1c(=O)oc2cc(Cl)ccc21)N1CCN(c2ccccn2)CC1            630
2  CCn1cc(C2=CCN(C(=O)NCc3cccc(F)c3)CC2)c2cccnc21            850
3  CCC1CCCCN1c1cc(C)nc2nc(-c3ccc(C)cc3)nn12 (stereo unspecified)           1160
4  CCN(CC)CCCNC(=O)c1cn(C)nc1S(=O)(=O)N1CCN(c2ccc(Cl)cc2)CC1            729

[a] Nc1cc(C2CCN(S(=O)(=O)c3ccc(Cl)cc3)CC2)no1
[b] COCCn1c(CCCC(=O)N2CCN(c3ccccn3)CC2)nc2cccnc21
I need your help: which of the pair a , b has higher RP-LC retention time? State the label of the item chosen.
a
(a: 826 s, b: 562 s)
